details: 313.15 K; 50000 kPa; Liquid; Vibrating tube method
PARAMETER MEASURED: mass density (kg/m3)

| QUERY SMILES | mass density / kg/m3 |
| --- | --- |
| CCCCOCC | 775.74 |
| COC(C)(C)C | 769.65 |
| CC(C)CCOCCC(C)C | 796.97 |
| CCCCCOCCCCC | 803.33 |
| CCOC(C)(C)C | 769.94 |
| CC(C)OC(C)C | 755.21 |
| CCCCOC | 772.34 |
| CCCOCCC | 774.17 |

====

details: 323.15 K; 35000 kPa; Liquid; Vibrating tube method
PARAMETER MEASURED: mass density (kg/m3)

| MOLECULE | PARAMETER MEASURED | VALUE REPORTED |
| --- | --- | --- |
| CCCCOCC [butyl ethyl ether] | mass density | 756.59 |
| CCCCOC [butyl methyl ether] | mass density | 752.53 |
| CCCCCOCCCCC [dipentyl ether] | mass density | 787.13 |
| CC(C)OC(C)C [diisopropyl ether] | mass density | 734.45 |
| COC(C)(C)C [2-methoxy-2-methylpropane] | mass density | 749.2 |
| CCOC(C)(C)C [2-ethoxy-2-methylpropane] | mass density | 749.69 |
| CCCOCCC [dipropyl ether] | mass density | 754.79 |
| CC(C)CCOCCC(C)C [di-(3-methylbutyl) ether] | mass density | 780.43 |
